Target: T1, human TL1A extracellular domain with N-terminal HIS and FLAG tag (human, UniProt O95150 72-251)
T1 construct: the whole entry is named; also called TNFSF15
T1 sequence: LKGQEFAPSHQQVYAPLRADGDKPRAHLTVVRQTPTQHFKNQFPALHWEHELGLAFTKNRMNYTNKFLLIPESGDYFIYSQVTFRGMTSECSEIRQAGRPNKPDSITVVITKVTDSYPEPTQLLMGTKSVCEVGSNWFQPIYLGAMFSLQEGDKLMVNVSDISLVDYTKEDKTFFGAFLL
Assay: SPR Run 7, antibody on Protein A, TL1A 5 ug/mL, timepoint 44
For each record, check the reported TL1A Binding Level (Early): if it is below 90 RU write TRUE, else write FALSE.

{"Binder": "320-582 (antibody, human IgG1, name in Kabat numbering, V domains shown, full-length human IgG1, lambda) VH: QVQLVQSGAEVKKPGASVKVSCKASGYTFTSYDINWVRQAPGQGLEWMGWLNPNSGNTGWAQKFQGRVTMTADRSTSTAYMELSSLRSEDTAVYYCAREVPETAAFEYWGQGTLVTVSS VL: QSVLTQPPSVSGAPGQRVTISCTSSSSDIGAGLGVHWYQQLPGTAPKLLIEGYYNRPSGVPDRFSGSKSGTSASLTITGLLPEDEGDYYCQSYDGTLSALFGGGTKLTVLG", "Class Label": "TRUE"}
{"Binder": "320-533 (antibody, human IgG1, name in Kabat numbering, V domains shown, full-length human IgG1, lambda) VH: QVQLVQSGAEVKKPGASVKVSCKASGYTFTSYDINWVRQAPGQGLEWMGWLNPNSQNTGYAQKFQGRVTMTADRSTSTAYMELSSLRSEDTAVYYCAREVPETAAFEYWGQGTLVTVSS VL: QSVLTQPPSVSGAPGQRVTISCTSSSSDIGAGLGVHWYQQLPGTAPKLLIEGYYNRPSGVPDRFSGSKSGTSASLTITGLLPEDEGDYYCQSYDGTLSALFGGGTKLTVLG", "Class Label": "FALSE"}
{"Binder": "320-580 (antibody, human IgG1, name in Kabat numbering, V domains shown, full-length human IgG1, lambda) VH: QVQLVQSGAEVKKPGASVKVSCKASGYTFTSYDINWVRQAPGQGLEWMGWLNPNSYNTGYAQKFQGRVTMTADRSTSTAYMELSSLRSEDTAVYYCAREVPETAAFEYWGQGTLVTVSS VL: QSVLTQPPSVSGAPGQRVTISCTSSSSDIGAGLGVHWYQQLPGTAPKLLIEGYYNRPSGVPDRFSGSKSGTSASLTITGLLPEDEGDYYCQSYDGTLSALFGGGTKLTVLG", "Class Label": "TRUE"}
{"Binder": "320-526 (antibody, human IgG1, name in Kabat numbering, V domains shown, full-length human IgG1, lambda) VH: QVQLVQSGAEVKKPGASVKVSCKASGYTFTSYDINWVRQAPGQGLEWMGWLNPNHGNTGYAQKFQGRVTMTADRSTSTAYMELSSLRSEDTAVYYCAREVPETAAFEYWGQGTLVTVSS VL: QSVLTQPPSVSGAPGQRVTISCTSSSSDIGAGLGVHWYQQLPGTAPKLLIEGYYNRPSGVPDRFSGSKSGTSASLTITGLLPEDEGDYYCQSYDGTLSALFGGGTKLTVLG", "Class Label": "FALSE"}
{"Binder": "320-575 (antibody, human IgG1, name in Kabat numbering, V domains shown, full-length human IgG1, lambda) VH: QVQLVQSGAEVKKPGASVKVSCKASGYTFTSYDINWVRQAPGQGLEWMGWLNPNSGNTGYHQKFQGRVTMTADRSTSTAYMELSSLRSEDTAVYYCAREVPETAAFEYWGQGTLVTVSS VL: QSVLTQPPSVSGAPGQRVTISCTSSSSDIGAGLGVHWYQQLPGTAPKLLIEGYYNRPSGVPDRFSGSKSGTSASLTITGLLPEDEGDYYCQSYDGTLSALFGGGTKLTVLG", "Class Label": "FALSE"}
